Compiled IC50 measurements on UniProt O60674 taken from the literature.

Some compounds with known IC50 results, for comparison:
{"Compound": "CNC(=O)c1n[nH]c2cc(-c3cc(F)c(O)cc3CC(F)(F)F)nc(NCc3cnccc3N(C)S(C)(=O)=O)c12", "Target of assay": "UniProt O60674", "Measurement": "188 nM"}
{"Compound": "Cc1cnc(Nc2ccc(N)cc2)nc1-c1cnn(C(CC#N)C2CCCC2)c1 (racemic)", "Target of assay": "UniProt O60674", "Measurement": "< 100 nM"}
{"Compound": "N#CCC1(n2cc(-c3ncnc4[nH]ccc34)cn2)CN(C2CCN(C(=O)Nc3ccccc3OC(F)(F)F)CC2)C1", "Target of assay": "UniProt O60674", "Measurement": "10 to 50 nM"}
{"Compound": "Cc1ccc(S(=O)(=O)N(C)c2ccccc2CNc2nc(-c3cc(F)c(O)cc3CC(F)(F)F)cc3[nH]nc(C(N)=O)c23)cn1", "Target of assay": "UniProt O60674", "Measurement": "52.4 nM"}

Asked: State measured IC50 of the compound CC(C)(C)NS(=O)(=O)c1ccc(-c2nc(Nc3ccc(N4CCOCC4)cc3)nc3ccsc23)cc1 with UniProt O60674.
Given back: > 1000 nM

Asked: State measured IC50 of the compound O=C(NCCCC1(O)CC1)c1noc2c1CN(c1ncnc3[nH]ccc13)CC2 with UniProt O60674.
Given back: 500 to 2000 nM

Asked: State measured IC50 of the compound COCCC1(n2cc(-c3nc(-c4cnn(C)c4)cc4nccn34)cn2)CN(C(=O)N(C)C)C1 with UniProt O60674.
Given back: > 1000 nM

* * *

pIC50: −log10 of the molar value.
Compiled pIC50 measurements on Tyrosine-protein kinase JAK2 (Homo sapiens, UniProt O60674) taken from the literature.

{"Compound": "N#CCC1(n2cc(-c3ncnc4[nH]ccc34)cn2)CN(C2CCN(C(=O)c3cccc(C(F)(F)F)c3F)CC2)C1", "Target of assay": "Tyrosine-protein kinase JAK2 (Homo sapiens, UniProt O60674)", "pIC50": "≥ 8.00"}
{"Compound": "Cn1nc(C(=O)NCCC(F)(F)F)c2c1CCN(c1ncnc3[nH]ccc13)C2", "Target of assay": "Tyrosine-protein kinase JAK2 (Homo sapiens, UniProt O60674)", "pIC50": "6.30 to 7.00"}

Asked: Using the record for CCc1cc(O)c(F)cc1-c1cc2[nH]nc(C(=O)Nc3ccc(C)nc3)c2c(NCc2ccccc2N(C)S(C)(=O)=O)n1 , state its measured pIC50.
Given back: 7.58

Asked: Using the record for CCS(=O)(=O)N1CC(CC#N)(n2cc(-c3nc(Nc4cnn(CCOC)c4)nc4ccsc34)cn2)C1 , state its measured pIC50.
Given back: > 7.30

Asked: Using the record for N#CCC1(n2cc(-c3ncnc4[nH]ccc34)cn2)CN(C2CCN(C(=O)C3CCC(c4ccc(Cl)cc4)CC3)CC2)C1 (stereo not shown) , state its measured pIC50.
Given back: < 7.00

Asked: Using the record for Cn1cc(-c2cc3nccn3c(-c3cnn(C(CC#N)c4ccccc4)c3)n2)cn1 (stereo not shown) , state its measured pIC50.
Given back: 7.00 to 8.00

Asked: Using the record for CC(C)(C#N)NC(=O)c1ccc(-c2ccnc(Nc3ccc(N4CCOCC4)cc3)n2)cc1 , state its measured pIC50.
Given back: > 6.00

Asked: Using the record for CC(C)OC(=O)Cn1cc(Nc2ncc3ccn(C[C@@H](CCO)C(C)C)c3n2)cn1 , state its measured pIC50.
Given back: > 7.00

Asked: Using the record for N#CCC(=O)N1CCC[C@@H](Nc2c(-c3cncs3)cnc3[nH]ccc23)C1 , state its measured pIC50.
Given back: 6.00 to 7.00

Asked: Using the record for N#CCC(C1CC1)n1cc(-c2nc(-c3ccc4c(c3)CNCC4)cc3nccn23)cn1 (stereo not shown) , state its measured pIC50.
Given back: 7.00 to 8.00

Asked: Using the record for CC1CCNC(=O)c2ccc(c(N)c2)-c2ccnc(n2)Nc2ccc(OCC3CCCOC3)c(c2)COC1 (stereo not shown) , state its measured pIC50.
Given back: 6.00 to 7.00

Asked: Using the record for CCC(=O)c1cnc(Nc2cc(C(=O)N(C)C)ccn2)cc1Nc1cccc(-c2ncn(C)n2)c1OC , state its measured pIC50.
Given back: ≤ 6.30

Asked: Using the record for CN1CCC(N2Cc3cc4nc(-c5c(NC[C@@H](O)COc6cc(F)ccc6Cl)cc[nH]c5=O)[nH]c4cc3C2=O)CC1 , state its measured pIC50.
Given back: > 6.30

Asked: Using the record for Nc1cc2ccc1-c1ccnc(n1)Nc1ccc(OCC3CCCOC3)c(c1)COc1ccc(cc1)NC2=O (stereo not shown) , state its measured pIC50.
Given back: 5.00 to 6.00

Asked: Using the record for N#Cc1cc(-c2ncnc(Nc3cnn(CC(F)F)c3)n2)ccc1O[C@H]1CCN(C(=O)CO)C[C@H]1F , state its measured pIC50.
Given back: 6.50

Asked: Using the record for CCc1cc(O)c(F)cc1-c1cc2[nH]nc(C(=O)NC)c2c(NCC(C)C)n1 , state its measured pIC50.
Given back: 8.12

* * *

Compiled IC50 measurements on Tyrosine-protein kinase JAK2 (Homo sapiens, UniProt O60674) taken from the literature.

Some compounds with known IC50 results, for comparison:
{"Compound": "CCn1c(C(=O)N(C2CC2)C2CC2)cc2c3c(ncn3C)c(Nc3nc(C)c(C(=O)NCC#N)s3)nc21", "Target of assay": "Tyrosine-protein kinase JAK2 (Homo sapiens, UniProt O60674)", "Measurement": "0.751 nM"}
{"Compound": "N#Cc1cc(-c2ncnc(Nc3ccc(N4CCN(C5COC5)CC4)cc3)n2)ccc1O[C@@H]1CCN(C(=O)C2COC2)C1", "Target of assay": "Tyrosine-protein kinase JAK2 (Homo sapiens, UniProt O60674)", "Measurement": "> 1000 nM"}
{"Compound": "NC(=O)c1cnc2[nH]ccc2c1NN1CCC(C(=O)NCC(F)(F)F)C1 (stereo not shown)", "Target of assay": "Tyrosine-protein kinase JAK2 (Homo sapiens, UniProt O60674)", "Measurement": "42.5 nM"}
{"Compound": "N#CCC1(n2cc(-c3ccnc(Nc4cccc(-c5nnn[nH]5)c4)n3)cn2)CCN(C(=O)c2ccno2)CC1 (racemic)", "Target of assay": "Tyrosine-protein kinase JAK2 (Homo sapiens, UniProt O60674)", "Measurement": "< 100 nM"}
{"Compound": "N#Cc1cc(-c2ncnc(Nc3ccc(N4CCN(C5COC5)CC4)cc3)n2)ccc1O[C@H]1CCN(C(=O)N2CC[C@@H](F)C2)C[C@H]1F", "Target of assay": "Tyrosine-protein kinase JAK2 (Homo sapiens, UniProt O60674)", "Measurement": "681 nM"}

Asked: Using the record for N#CCC1(n2cc(-c3ccnc(Nc4cccc(-c5cnco5)c4)n3)cn2)CC(C#N)C1 (single isomer, unassigned) , state its measured IC50.
Given back: < 100 nM

Asked: Using the record for CCS(=O)(=O)N1CC(CC#N)(n2cc(-c3nc(Nc4cnc(N5CCOCC5)nc4)nc4ccsc34)cn2)C1 , state its measured IC50.
Given back: < 50 nM

* * *

Compiled IC50 measurements on Tyrosine-protein kinase JAK2 (Homo sapiens, UniProt O60674) taken from the literature.

Some molecules with known IC50 results, for comparison:
{"Molecule": "CN1CCN(c2ccc3c(c2)[nH]c2c(C(N)=O)cc(-c4cccc(Cl)c4)nc23)CC1", "IC50": "1 nM"}
{"Molecule": "Cn1cc(-c2cc3nccn3c(-c3cnn(C4(CCF)CN(CC(F)(F)F)C4)c3)n2)cn1", "IC50": "100 to 1000 nM"}
{"Molecule": "NC(=O)c1cnc2[nH]ccc2c1NN1CCC[C@H](C(=O)NCC(F)F)C1", "IC50": "3.69 nM"}
{"Molecule": "N#CCC1(n2cc(-c3ncnc4[nH]ccc34)cn2)CN(C2CCN(C(=O)c3ccc(O)c(Cl)c3)CC2)C1", "IC50": "10 to 50 nM"}
{"Molecule": "N#CCC1(n2cc(-c3ccnc(Nc4ccc(S(=O)(=O)N5CCOCC5)cc4)n3)cn2)CCN(C(=O)c2ccno2)CC1 (racemic)", "IC50": "< 100 nM"}

Asked: Using the record for O=C1c2cc3nc(-c4c(NC[C@@H](O)c5cccc(Cl)c5)cc[nH]c4=O)[nH]c3cc2C(=O)N1CC1CCN(CCO)CC1 , state its measured IC50.
Given back: 500 to 5000 nM

Asked: Using the record for N#CCC1(n2cc(-c3ncnc4[nH]ccc34)cn2)CN(C2CCN(C(=O)c3ccc(-c4ccc5ncccc5c4)c(F)c3)CC2)C1 , state its measured IC50.
Given back: 50 to 100 nM

Asked: Using the record for CN1CCC(N2C(=O)c3cc4nc(-c5c(NCCc6c[nH]cn6)cc[nH]c5=O)[nH]c4cc3C2=O)CC1 , state its measured IC50.
Given back: 500 to 5000 nM

Asked: Using the record for COc1cc2ccc1-c1ccnc(n1)Nc1ccc(N3CCOCC3)c(c1)COCCCCNC2=O , state its measured IC50.
Given back: 101 to 1000 nM

Asked: Using the record for CNC(=O)c1ccnc(-c2cnc3[nH]ccc3c2N[C@H]2C[C@@H](NS(=O)(=O)c3cccc(C#N)c3)C2)c1 , state its measured IC50.
Given back: 10 to 100 nM

Asked: Using the record for CC(=O)N1CC[C@H](Oc2ccc(-c3ncnc(Nc4ccc(C5CCNCC5)cc4)n3)cc2C#N)C(F)(F)C1 , state its measured IC50.
Given back: 308 nM

Asked: Using the record for C[C@H](NC(=O)c1ccc(N2CC(CC#N)(n3cc(-c4ncnc5[nH]ccc45)cn3)C2)cn1)C1CC1 , state its measured IC50.
Given back: ≤ 10 nM

Asked: Using the record for CCOC(=O)C(C)(C)n1cc(Nc2ncc3ccn(CC(CC)CC)c3n2)cn1 , state its measured IC50.
Given back: < 100 nM

Asked: Using the record for N#CCC1(n2cc(-c3ncnc4[nH]ccc34)cn2)CN(C2CCN(C(=O)c3cc(C(F)(F)F)ncc3F)CC2)C1 , state its measured IC50.
Given back: 50 to 100 nM

Asked: Using the record for CC(C)NC(=O)c1ccc(N2CC(CC#N)(n3cc(-c4ccnc5[nH]ccc45)cn3)C2)c(F)c1 , state its measured IC50.
Given back: ≤ 10 nM
